Entry source: paper PMC9064986

Listing: screen value of selected variants
B1: BMPRII extracellular domain (ECD), wild type [human] / BMP10 growth factor (GF)-domain from Pro:BMP10 made in HEK EBNA cells [human] (parent)
chain 1: SQNQERLCAFKDPYQQDLGIGESRISHENGTILCSKGSTCYGLWEKSKGDINLVKQGCWSHIGDPQECHYEECVVTTTPPSIQNGTYRFCCCSTDLCNVNFTENFPPPDTTPLSPPHSFNRDET
chain 2: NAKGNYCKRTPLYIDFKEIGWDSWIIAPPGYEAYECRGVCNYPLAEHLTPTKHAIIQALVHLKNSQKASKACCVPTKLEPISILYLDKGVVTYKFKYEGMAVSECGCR

variants of: B1; experiment: native PAGE prodomain displacement (densitometry); conditions: with BMP10 growth factor (GF)-domain from Pro:BMP10 made in HEK EBNA cells [human]; BMPRII ECD at 5-fold excess (5x) over Pro:BMP10; lower ratio = more prodomain displaced; parent: 0.46; read off a plot
// response body must contain only the number

# example entries with known answers
>>> value_reported("chain 1 G63E")
0.93
>>> value_reported("chain 1 G63W")
0.77
>>> value_reported("chain 1 G42D")
0.72
>>> value_reported("chain 1 G63A")
0.6
>>> value_reported("chain 1 E72K")
0.19

Entry chain 1 S81P ; screen value = 0.66

Entry chain 1 N100S ; screen value = 0.39

Entry chain 1 Q66H ; screen value = 0.55

Entry chain 1 G57E ; screen value = 0.88

Entry chain 1 Y41C ; screen value = 0.88
